experiment: Therapeutic index, ratio of HC50 for human erythrocytes to MIC for gentamycin-colistin-resistant Escherichia coli 288328; type: toxicity

Smiles entry | selectivity ratio
CCCCCCCCCCCCNC(=O)CN(NC(=O)c1ccccc1)C(=O)CN.Cl | 49
CCCCCCCCCCCCNC(=O)CN(NC(=O)C(C)(C)C)C(=O)CN.Cl | 49

---

Measured Retention_time of individual entries
assay: Retention time of the compound by RP-HPLC analysis; format: physicochemical

Smiles entry | Unit name | Retention_time
CCCCCCCC(=O)NN(CC(=O)NCCC)C(=O)CN.Cl | min | 5.2
CCCCCCCCCCCCCCCCCC(=O)NN(CC(=O)NCCC)C(=O)CN.Cl | min | 26.5
CCCCCCCCNC(=O)CN(NC(=O)OCc1ccccc1)C(=O)CN.Cl | min | 14.3
CCCCCCCCCCCCNC(=O)CN(NC(C)=O)C(=O)CN.Cl | min | 17.5
CCCCCCCCNC(=O)CN(NC(=O)CCCCCCC)C(=O)CN.Cl | min | 17.8
CCCCCCCCCCCCNC(=O)CN(C(=O)CN)N(C)C(C)=O | min | 17.1
CCCNC(=O)CN(NC(C)=O)C(=O)CN.O=C(O)C(F)(F)F | min | 0.3
CCCCCCCCCCCCCCCCCCNC(=O)CN(NC(=O)CCCCCCCCCCC)C(=O)CN.Cl | min | 35.9
CCCCCCCCCCCCCCCCCCNC(=O)CN(NC(=O)CCCCCCCCCCCCCCCCC)C(=O)CN.Cl | min | 41.8
CCCCCCCCCCCCCCCCCCNC(=O)CN(NC(=O)CCCCCCC)C(=O)CN.Cl | min | 33.1
CCCNC(=O)CN(NC(=O)OCc1ccccc1)C(=O)CN.Cl | min | 3.4

---

system: Escherichia coli; assay: Antibacterial activity against Escherichia coli ATCC 25922 assessed as inhibition of visible growth after 24 hrs by broth microdilution method; type: functional
Measured MIC of individual entries

Smiles entry | Qualifier symbol | MIC (µg/mL)
CCCCCCCCCCCC(=O)NN(CC(=O)NCCCCCCCC)C(=O)CN.Cl | = | 128
CCCNC(=O)CN(NC(C)=O)C(=O)CN.O=C(O)C(F)(F)F | = | 2050
CCCCCCCCNC(=O)CN(NC(=O)c1ccccc1)C(=O)CN.Cl | = | 128
CCCCCCCCCCCCCCCCCCNC(=O)CN(NC(=O)OCc1ccccc1)C(=O)CN.Cl | = | 512
CCCCCCCCCCCCCCCCCCNC(=O)CN(NC(C)=O)C(=O)CN.Cl | = | 512
CCCCCCCCCCCCCCCCCC(=O)NN(CC(=O)NCCC)C(=O)CN.Cl | = | 512
CCCNC(=O)CN(NC(=O)OCc1ccccc1)C(=O)CN.Cl | = | 512
CCCCCCCCCCCCCCCCCC(=O)NN(CC(=O)NCCCCCCCCCCCC)C(=O)CN.Cl | = | 512
CCCCCCCCCCCCNC(=O)CN(NC(=O)C(C)(C)C)C(=O)CN.Cl | = | 8
CCCCCCCCCCCCNC(=O)CN(C(=O)CN)N(C)C(=O)OCc1ccccc1 | = | 64
CCCCCCCCNC(=O)CN(NC(C)=O)C(=O)CN.Cl | = | 256
CCCCCCCCCCCCNC(=O)CN(C(=O)CN)N(C)C(C)=O | = | 128
CCCCCCCCNC(=O)CN(C(=O)CN)N(C)C(=O)C(C)(C)C | = | 256
CCCCCCCCCCCCNC(=O)CN(NC(=O)CCCCCCC)C(=O)CN.Cl | = | 256
CCCCCCCCCCCCCCCCCC(=O)NN(CC(=O)NCCCCCCCC)C(=O)CN.Cl | = | 512
CCCCCCCCCCCCNC(=O)CN(NC(C)=O)C(=O)CN.Cl | = | 64
CCCCCCCCNC(=O)CN(C(=O)CN)N(C)C(C)=O | = | 2050
CCCCCCCCCCCCNC(=O)CN(NC(=O)c1ccccc1)C(=O)CN.Cl | = | 4
CCCCCCCCCCCCCCCCCCNC(=O)CN(NC(=O)CCCCCCC)C(=O)CN.Cl | > | 256
CCCCCCCCCCCCCCCCCCNC(=O)CN(NC(=O)CCCCCCCCCCC)C(=O)CN.Cl | > | 512
CCCCCCCC(=O)NN(CC(=O)NCCC)C(=O)CN.Cl | = | 1020
CCCCCCCCCCCCNC(=O)CN(NC(=O)CCCCCCCCCCC)C(=O)CN.Cl | > | 128

src = ChEMBL document CHEMBL4680184
